METHOD: Waters ACQUITY UPLC BEH C18, 100 × 2.1 mm, 1.7 µm, 40 °C, 0.3 to 0.4 mL/min, estimated dead time 0.63 min; A: water + 0.1% formic acid; B: methanol + 0.1% formic acid; gradient (min/%B) 0/0.5 0.1/0.5 10/80 10.1/99.5 12/99.5
EXPERIMENTAL PARAMETERS: stereoisomer not certain
READOUT NAME: LC retention time (min)

INSERT INTO measurements (compound, test_value) VALUES
  ('O=C(O)C1OC(Oc2cc3oc(-c4ccccc4)cc(=O)c3c(O)c2O)C(O)C(O)C1O (stereo not drawn)', 4.49),
  ('COc1cc(C2Oc3c(O)cc(C4Oc5cc(O)cc(O)c5C(=O)C4O)cc3C2CO)ccc1O (stereo not drawn)', 4.96),
  ('CC(CCC1(O)OC2CC3C4CCC5CC(OC6OC(CO)C(OC7OC(CO)C(O)C(O)C7OC7OC(CO)C(O)C(O)C7O)C(O)C6O)CCC5(C)C4CCC3(C)C2C1C)COC1OC(CO)C(O)C(O)C1O (stereo not drawn)', 4.91);

----------
METHOD: Waters ACQUITY UPLC BEH C18, 100 × 2.1 mm, 1.7 µm, 40 °C, 0.3 to 0.4 mL/min, estimated dead time 0.63 min; A: water + 0.1% formic acid; B: methanol + 0.1% formic acid; gradient (min/%B) 0/0.5 0.1/0.5 10/80 10.1/99.5 12/99.5
EXPERIMENTAL PARAMETERS: stereoisomer not certain
# Lookup of reported LC retention time keyed by entry
Give the value in min but do not write min after it.

Here is how some molecules turned out for LC retention time.
INSERT INTO measurements (molecule, units_text, test_value) VALUES
  ('CC=C1CN(C)C2Cc3c([nH]c4ccccc34)C(c3cc4[nH]c5c(c4cc3OC)CCN3CC4CC(CC)C3C5(C(=O)OC)C4)CC1C2C(=O)OC (centres undefined)', 'min', 4.94),
  ('COc1ccc(-c2coc3cc(OC4OC(CO)C(O)C(O)C4O)c(OC)cc3c2=O)cc1 (centres undefined)', 'min', 5.05);

Inquiry: Entry CC1CCC2(NC1)OC1CC3C4CCC5CC(OC6OC(CO)C(OC7OC(CO)C(O)C(OC8OCC(O)C(O)C8O)C7OC7OC(CO)C(O)C(O)C7O)C(O)C6O)CCC5(C)C4CCC3(C)C1C2C (centres undefined) : reported LC retention time = ?
Reply text: 4.81

Inquiry: Check C=CC12CN(C)C3C4COC(CC41)C1(C(=O)Nc4ccccc41)C32 (centres undefined) too.
Reply text: 3.21

Hello, the source for this data is the RepoRT retention time repository, in case you need it.
